SYSTEM_TESTED: L-lactate dehydrogenase B chain (Homo sapiens) (UniProt P07195)
Sequence (P07195 2-334 limits assumed): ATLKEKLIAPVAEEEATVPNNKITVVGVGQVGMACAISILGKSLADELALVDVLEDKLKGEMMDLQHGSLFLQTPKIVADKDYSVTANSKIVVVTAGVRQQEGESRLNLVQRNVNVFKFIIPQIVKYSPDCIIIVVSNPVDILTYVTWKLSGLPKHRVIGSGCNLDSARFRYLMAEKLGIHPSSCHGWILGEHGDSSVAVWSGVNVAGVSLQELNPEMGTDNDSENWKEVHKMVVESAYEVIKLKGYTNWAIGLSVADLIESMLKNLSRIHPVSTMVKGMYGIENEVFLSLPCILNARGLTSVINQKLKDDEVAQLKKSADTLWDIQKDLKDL
ASSAY_NAME: Inhibition of recombinant human LDHB using sodium pyruvate as substrate preincubated for 5 mins followed by diaphorase/resazurin addition and measured after 20 mins by fluorescence based assay
Activity calls are given as the source filed them. The rule behind the calls is not given here.
QUANTITY_KIND: inhibition

Previously resolved entries follow.
- STRUCTURE_SMILES_STRING: "Cc1ccc(C#Cc2cccc(-c3nn(-c4nc(C(=O)O)cs4)c(CC4CC4)c3Cc3ccc(S(N)(=O)=O)c(F)c3)c2)o1"
  SYSTEM_TESTED: "L-lactate dehydrogenase B chain (Homo sapiens) (UniProt P07195)"
  QUANTITY_KIND: "inhibition"
  READING: "Active"
- STRUCTURE_SMILES_STRING: "NS(=O)(=O)c1ccc(Cc2c(-c3cccc(C#Cc4ccc(C5CC5)s4)c3)nn(-c3nc(C(=O)O)cs3)c2CCC2CC2)cc1F"
  SYSTEM_TESTED: "L-lactate dehydrogenase B chain (Homo sapiens) (UniProt P07195)"
  QUANTITY_KIND: "inhibition"
  READING: "Active"
- STRUCTURE_SMILES_STRING: "Cc1cc(C#Cc2cccc(-c3nn(-c4nc(C(=O)O)cs4)c(CCC4CC4)c3Cc3ccc(S(N)(=O)=O)c(F)c3)c2)c(C)s1"
  SYSTEM_TESTED: "L-lactate dehydrogenase B chain (Homo sapiens) (UniProt P07195)"
  QUANTITY_KIND: "inhibition"
  READING: "Active"
- STRUCTURE_SMILES_STRING: "NS(=O)(=O)c1ccc(Cc2c(-c3cccc(-c4ccccc4)c3)nn(-c3nc(C(=O)O)cs3)c2CCC2CC2)cc1"
  SYSTEM_TESTED: "L-lactate dehydrogenase B chain (Homo sapiens) (UniProt P07195)"
  QUANTITY_KIND: "inhibition"
  READING: "Active"
- STRUCTURE_SMILES_STRING: "NS(=O)(=O)c1ccc(Cc2c(-c3cccc(C#CC4CCCC4)c3)nn(-c3nc(C(=O)O)cs3)c2CC2CC2)cc1F"
  SYSTEM_TESTED: "L-lactate dehydrogenase B chain (Homo sapiens) (UniProt P07195)"
  QUANTITY_KIND: "inhibition"
  READING: "Active"
- STRUCTURE_SMILES_STRING: "Cc1cc(C#Cc2cccc(-c3nn(-c4nc(C(=O)O)cs4)c(CC4CC4)c3Cc3ccc(S(N)(=O)=O)c(F)c3)c2)cs1"
  SYSTEM_TESTED: "L-lactate dehydrogenase B chain (Homo sapiens) (UniProt P07195)"
  QUANTITY_KIND: "inhibition"
  READING: "Active"

Proceeding to the next compound to report its inhibition.
QUERY: Look up and report measured inhibition for this entry: NS(=O)(=O)c1ccc(Cc2c(-c3cccc(C#Cc4ccc(C5CC5)s4)c3)nn(-c3nc(C(=O)O)cs3)c2CC2CC2)cc1F
RESULT: Active

* * *

SYSTEM_TESTED: L-lactate dehydrogenase A chain (Homo sapiens, UniProt P00338)
ASSAY_NAME: Inhibition of LDHA in human MIA PaCa-2 cells assessed as decrease in lactate production incubated for 2 hrs by lactate oxidase-coupled fluorescence based assay
Format: cell-based
QUANTITY_KIND: log10(IC50) (log10 of the value in nM)
// do not treat as linear: log10 of IC50, unit nM

- MOLECULE: "CC(C)C#Cc1cc(-c2nn(-c3nc(C(=O)O)cs3)c(CC3CC3)c2Cc2ccc(S(N)(=O)=O)c(F)c2)ccc1F"
  log10(IC50): 2.69
- MOLECULE: "CC(C)c1ccc(C#Cc2cccc(-c3nn(-c4nc(C(=O)O)cs4)c(CC4CC4)c3Cc3ccc(S(N)(=O)=O)c(F)c3)c2)s1"
  log10(IC50): 2.31
- MOLECULE: "Cc1ccc(C#Cc2cccc(-c3nn(-c4nc(C(=O)O)cs4)c(CC4CC4)c3Cc3ccc(S(N)(=O)=O)c(F)c3)c2)s1"
  log10(IC50): 2.56

QUERY: Look up and report measured log10(IC50) for this entry: NS(=O)(=O)c1ccc(Cc2c(-c3cccc(-c4ccccc4)c3)nn(-c3nc(C(=O)O)cs3)c2CCC2CC2)cc1
RESULT: 2.91

QUERY: Look up and report measured log10(IC50) for this entry: NS(=O)(=O)c1ccc(Cc2c(-c3cccc(-c4ccccc4)c3)nn(-c3nc(C(=O)O)cs3)c2CC2CC2(F)F)cc1 (centres undefined)
RESULT: 3.24

QUERY: Look up and report measured log10(IC50) for this entry: NS(=O)(=O)c1ccc(Cc2c(-c3ccc(F)c(C#CCCO)c3)nn(-c3nc(C(=O)O)cs3)c2CC2CC2)cc1F
RESULT: 3.22

* * *

Measured pIC50, listed per entry for reference.
SYSTEM_TESTED: L-lactate dehydrogenase A chain (Homo sapiens)
ASSAY_NAME: Inhibition of recombinant human LDHA using sodium pyruvate as substrate preincubated for 5 mins followed by diaphorase/resazurin addition and measured after 20 mins by fluorescence based assay
Lab note — pIC50 values are minus log10 of concentrations in M.

Previously resolved entries follow.
- COMPOUND: "Cc1cc(C#Cc2cccc(-c3nn(-c4nc(C(=O)O)cs4)c(CCC4CC4)c3Cc3ccc(S(N)(=O)=O)c(F)c3)c2)c(C)s1"
  pIC50: 6.31
- COMPOUND: "NS(=O)(=O)c1ccc(Cc2c(-c3ccc(F)c(C#Cc4cccs4)c3)nn(-c3nc(C(=O)O)cs3)c2CC2CC2)cc1F"
  pIC50: 7.49
- COMPOUND: "Cc1nc(C#Cc2cccc(-c3nn(-c4nc(C(=O)O)cs4)c(CC4CC4)c3Cc3ccc(S(N)(=O)=O)c(F)c3)c2)cs1"
  pIC50: 7.89
- COMPOUND: "Cc1ncc(C#Cc2cccc(-c3nn(-c4nc(C(=O)O)cs4)c(CC4CC4)c3Cc3ccc(S(N)(=O)=O)c(F)c3)c2)s1"
  pIC50: 7.37
- COMPOUND: "NS(=O)(=O)c1ccc(Cc2c(-c3cccc(-c4ccccc4)c3)nn(-c3nc(C(=O)O)cs3)c2CC2CC2)cc1F"
  pIC50: 7.60

QUERY: Give the observed pIC50 of CC(C)C#Cc1cc(-c2nn(-c3nc(C(=O)O)cs3)c(CC3CC3)c2Cc2ccc(S(N)(=O)=O)c(F)c2)ccc1F for L-lactate dehydrogenase A chain (Homo sapiens).
RESULT: 7.68

QUERY: Give the observed pIC50 of NS(=O)(=O)c1ccc(Cc2c(-c3ccc(F)c(-c4ccccc4)c3)nn(-c3nc(C(=O)O)cs3)c2CC2CC2)cc1 for L-lactate dehydrogenase A chain (Homo sapiens).
RESULT: 7.64

QUERY: Give the observed pIC50 of Cc1ncc(C#Cc2cccc(-c3nn(-c4nc(C(=O)O)cs4)c(CCC4CC4)c3Cc3ccc(S(N)(=O)=O)c(F)c3)c2)s1 for L-lactate dehydrogenase A chain (Homo sapiens).
RESULT: 7.62

QUERY: Give the observed pIC50 of CC(F)C#Cc1cc(-c2nn(-c3nc(C(=O)O)cs3)c(CC3CC3)c2Cc2ccc(S(N)(=O)=O)c(F)c2)ccc1F (stereo not given) for L-lactate dehydrogenase A chain (Homo sapiens).
RESULT: 7.85

QUERY: Give the observed pIC50 of NS(=O)(=O)c1ccc(Cc2c(-c3ccc(F)c(C#CCCO)c3)nn(-c3nc(C(=O)O)cs3)c2CC2CC2)cc1F for L-lactate dehydrogenase A chain (Homo sapiens).
RESULT: 8.52

QUERY: Give the observed pIC50 of Cc1ccc(C#Cc2cccc(-c3nn(-c4nc(C(=O)O)cs4)c(CC4CC4)c3Cc3ccc(S(N)(=O)=O)c(F)c3)c2)s1 for L-lactate dehydrogenase A chain (Homo sapiens).
RESULT: 7.40

QUERY: Give the observed pIC50 of NS(=O)(=O)c1ccc(Cc2c(-c3ccc(F)c(C#CCC4CCCC4)c3)nn(-c3nc(C(=O)O)cs3)c2CC2CC2)cc1F for L-lactate dehydrogenase A chain (Homo sapiens).
RESULT: 6.69

QUERY: Give the observed pIC50 of NS(=O)(=O)c1ccc(Cc2c(-c3cccc(C#Cc4ccc(C5CC5)s4)c3)nn(-c3nc(C(=O)O)cs3)c2CCC2CC2)cc1F for L-lactate dehydrogenase A chain (Homo sapiens).
RESULT: 6.51

QUERY: Give the observed pIC50 of Cc1cc(C)c(C#Cc2cccc(-c3nn(-c4nc(C(=O)O)cs4)c(CC4CC4)c3Cc3ccc(S(N)(=O)=O)c(F)c3)c2)s1 for L-lactate dehydrogenase A chain (Homo sapiens).
RESULT: 6.86

QUERY: Give the observed pIC50 of NS(=O)(=O)c1ccc(Cc2c(-c3ccc(F)c(C#CCN4CCCC4)c3)nn(-c3nc(C(=O)O)cs3)c2CC2CC2)cc1F for L-lactate dehydrogenase A chain (Homo sapiens).
RESULT: 8.10

* * *

SYSTEM_TESTED: L-lactate dehydrogenase A chain (Homo sapiens, UniProt P00338)
ASSAY_NAME: Inhibition of recombinant human LDHA using sodium pyruvate as substrate preincubated for 5 mins followed by diaphorase/resazurin addition and measured after 20 mins by fluorescence based assay
Measured log10 of IC50, listed per entry for reference.
// do not treat as linear: log10 of IC50, unit nM

Previously resolved entries follow.
- MOLECULE: "Cc1ncc(C#Cc2cc(-c3nn(-c4nc(C(=O)O)cs4)c(CC4CC4)c3Cc3ccc(S(N)(=O)=O)c(F)c3)ccc2F)s1"
  log10 of IC50: 1.52
- MOLECULE: "CCC#Cc1cc(-c2nn(-c3nc(C(=O)O)cs3)c(CC3CC3)c2Cc2ccc(S(N)(=O)=O)c(F)c2)ccc1F"
  log10 of IC50: 1.15
- MOLECULE: "NS(=O)(=O)c1ccc(Cc2c(-c3cccc(C#Cc4ccc(Cl)s4)c3)nn(-c3nc(C(=O)O)cs3)c2CC2CC2)cc1F"
  log10 of IC50: 2.22
- MOLECULE: "CC(C)(C)c1ccc(C#Cc2cc(-c3nn(-c4nc(C(=O)O)cs4)c(CC4CC4)c3Cc3ccc(S(N)(=O)=O)c(F)c3)ccc2F)s1"
  log10 of IC50: 2.85
- MOLECULE: "NS(=O)(=O)c1ccc(Cc2c(-c3cccc(-c4ccccc4)c3)nn(-c3nc(C(=O)O)cs3)c2C2(C(F)(F)F)CC2)cc1"
  log10 of IC50: 3.61
- MOLECULE: "NS(=O)(=O)c1ccc(Cc2c(-c3cccc(-c4ccccc4)c3)nn(-c3nc(C(=O)O)cs3)c2CC2CC2)c(F)c1"
  log10 of IC50: 2.36
- MOLECULE: "NS(=O)(=O)c1ccc(Cc2c(-c3ccc(F)c(/C=C/C4CC4)c3)nn(-c3nc(C(=O)O)cs3)c2CC2CC2)cc1F"
  log10 of IC50: 1.18
- MOLECULE: "CCCCC#Cc1cc(-c2nn(-c3nc(C(=O)O)cs3)c(CC3CC3)c2Cc2ccc(S(N)(=O)=O)c(F)c2)ccc1F"
  log10 of IC50: 1.70
- MOLECULE: "Cc1ccc(C#Cc2cc(-c3nn(-c4nc(C(=O)O)cs4)c(CC4CC4)c3Cc3ccc(S(N)(=O)=O)c(F)c3)ccc2F)s1"
  log10 of IC50: 1.76
- MOLECULE: "Cc1ccsc1C#Cc1cccc(-c2nn(-c3nc(C(=O)O)cs3)c(CC3CC3)c2Cc2ccc(S(N)(=O)=O)c(F)c2)c1"
  log10 of IC50: 2.00

QUERY: Look up and report measured log10 of IC50 for this entry: NS(=O)(=O)c1ccc(Cc2c(-c3cccc(C#Cc4ccc(C(F)F)s4)c3)nn(-c3nc(C(=O)O)cs3)c2CC2CC2)cc1F
RESULT: 2.19

QUERY: Look up and report measured log10 of IC50 for this entry: NS(=O)(=O)c1ccc(Cc2c(-c3ccc(F)c(C#CC4CCC4)c3)nn(-c3nc(C(=O)O)cs3)c2CC2CC2)cc1F
RESULT: 1.36

QUERY: Look up and report measured log10 of IC50 for this entry: CC#Cc1cc(-c2nn(-c3nc(C(=O)O)cs3)c(CC3CC3)c2Cc2ccc(S(N)(=O)=O)c(F)c2)ccc1F
RESULT: 1.04

QUERY: Look up and report measured log10 of IC50 for this entry: NS(=O)(=O)c1ccc(Cc2c(-c3cccc(-c4ccccc4)c3)nn(-c3nc(C(=O)O)cs3)c2CC(F)(F)F)cc1
RESULT: 2.44

These measurements were taken from ChEMBL document CHEMBL4665801.
